Target system: Neuropeptide Y receptor type 5 (Homo sapiens, UniProt Q15761)
Sequence (Q15761 whole entry): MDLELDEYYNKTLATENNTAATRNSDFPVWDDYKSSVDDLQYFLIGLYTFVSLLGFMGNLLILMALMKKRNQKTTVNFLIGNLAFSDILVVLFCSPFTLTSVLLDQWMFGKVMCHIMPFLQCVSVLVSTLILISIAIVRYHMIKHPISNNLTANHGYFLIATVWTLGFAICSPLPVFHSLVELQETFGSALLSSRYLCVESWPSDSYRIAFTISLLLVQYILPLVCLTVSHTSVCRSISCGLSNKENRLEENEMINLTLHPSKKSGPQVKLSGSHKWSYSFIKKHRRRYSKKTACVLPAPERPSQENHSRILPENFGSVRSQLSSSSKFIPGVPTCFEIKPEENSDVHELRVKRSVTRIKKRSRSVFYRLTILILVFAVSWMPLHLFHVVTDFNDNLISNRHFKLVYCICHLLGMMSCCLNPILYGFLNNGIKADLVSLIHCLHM
Assay remarks: Affinity for cloned Y5 receptor using [125I]PYY as radioligand
pKi: −log10 of the molar value.
Test readout: pKi

Value lookup for pKi; key = "H-INPIYRLRY-NH2" < 6.00

---

The reader will find reported Ki values listed item by item below.
Target system: UniProt P49146
Sequence (P49146 whole entry): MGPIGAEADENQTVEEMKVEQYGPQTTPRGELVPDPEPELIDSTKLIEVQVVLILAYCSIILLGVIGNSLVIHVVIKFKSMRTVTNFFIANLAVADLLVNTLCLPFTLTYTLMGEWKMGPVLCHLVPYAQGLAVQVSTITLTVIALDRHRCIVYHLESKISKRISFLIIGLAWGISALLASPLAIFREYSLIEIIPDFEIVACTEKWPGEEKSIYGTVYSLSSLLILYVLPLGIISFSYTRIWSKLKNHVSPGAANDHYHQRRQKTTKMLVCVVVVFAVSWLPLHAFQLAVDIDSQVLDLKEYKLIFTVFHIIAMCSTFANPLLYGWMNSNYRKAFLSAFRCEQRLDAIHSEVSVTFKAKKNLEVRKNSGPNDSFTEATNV
Where a SMILES comes first, the peptide text is derived from it. The star is where a group is joined. Argψ(CH2NH)TyrNH2 = N=C(N)NCCC[C@@H](CN[C@@H](Cc1ccc(O)cc1)C(N)=O)N*
Numbers only here, please. The scale is µM.

Compound	Ki [µM]
CC[C@H](C)[C@H](N)C(=O)N[C@H]1CCC(=O)NC[C@@H](C(=O)N[C@@H](Cc2ccc(O)cc2)C(=O)N[C@@H](CCCNC(=N)N)C(=O)N[C@@H](CC(C)C)C(=O)N[C@@H](CCCNC(=N)N)CN[C@@H](Cc2ccc(O)cc2)C(N)=O)NC(=O)[C@@H]2CCCN2C(=O)[C@@H](NC(=O)[C@@H](N)[C@@H](C)CC)CCC(=O)NC[C@@H](C(=O)N[C@@H](Cc2ccc(O)cc2)C(=O)N[C@@H](CCCNC(=N)N)C(=O)N[C@@H](CC(C)C)C(=O)N[C@@H](CCCNC(=N)N)CN[C@@H](Cc2ccc(O)cc2)C(N)=O)NC(=O)[C@@H]2CCCN2C1=O	0.624

Form field: Ki recorded for CC[C@H](C)[C@H](N)C(=O)N[C@@H](CC(N)=O)C(=O)N1CCC[C@H]1C(=O)N[C@H](C(=O)N[C@@H](Cc1ccc(O)cc1)C(=O)N[C@@H](CCCNC(=N)N)C(=O)N[C@@H](CC(C)C)C(=O)N[C@@H](CCCNC(=N)N)C(=O)N[C@@H](Cc1ccc(O)cc1)C(=O)OC)[C@@H](C)CC (H-INPIYRLRY-OMe) with UniProt P49146 (enter value) 1.42

Form field: Ki recorded for "CC[C@H](C)[C@H](N)C(=O)N[C@@H](CC(N)=O)C(=O)N1CCC[C@H]1C(=O)N[C@@H](CSSC[C@H](NC(=O)[C@@H]1CCCN1C(=O)[C@H](CC(N)=O)NC(=O)[C@@H](N)[C@@H](C)CC)C(=O)N[C@@H](Cc1ccc(O)cc1)C(=O)N[C@@H](CCCN=C(N)N)C(=O)N[C@@H](CC(C)C)C(=O)N[C@@H](CCCN=C(N)N)C(=O)N[C@@H](Cc1ccc(O)cc1)C(=O)OC)C(=O)N[C@@H](Cc1ccc(O)cc1)C(=O)N[C@@H](CCCN=C(N)N)C(=O)N[C@@H](CC(C)C)C(=O)N[C@@H](CCCN=C(N)N)C(=O)N[C@@H](Cc1ccc(O)cc1)C(=O)OC" with UniProt P49146 (enter value) 1.12

Form field: Ki recorded for CC[C@H](C)[C@H](N)C(=O)N[C@@H](CC(N)=O)C(=O)N1CCC[C@H]1C(=O)N[C@H](C(=O)N[C@@H](Cc1ccc(O)cc1)C(=O)N[C@@H](CCCNC(=N)N)C(=O)N[C@@H](CC(C)C)C(=O)N[C@@H](CCCNC(=N)N)CN[C@@H](Cc1ccc(O)cc1)C(N)=O)[C@@H](C)CC (H-INPIYRL-{Argψ(CH2NH)TyrNH2}) with UniProt P49146 (enter value) 1.65
